Assay: CEETOX_H295R_11DCORT: CeeTox H295R High-throughput Steroidogenesis Assay for 11-Deoxycortisol (11DCORT) (AID 2283432)
Settings: actives raise or lower the signal
Active and inactive are the calls of the source. How the source made its calls: active means hit-call score of the fitted dose curve at least 0.9, where 1 is the maximum; inactive means score below 0.9.
Outcomes: active, inactive

> print(dat)
                           structure.string  qualitative.label
1          C#CC(C)(C)NC(=O)c1cc(Cl)cc(Cl)c1             active
2  CCOC(=O)COc1cc(-c2nn(C)c(OC(F)F)c2Cl)c(F)cc1Cl           inactive
3               CNC(=O)Oc1cccc2c1OC(C)(C)O2           inactive

Reference source for all entries: PubChem BioAssay (EPA / NIEHS)
